Tested on: human lung cancer strain NCI-H441
Assay type: cell-based
Where a SMILES comes first, the peptide text is derived from it. Bridges are numbered along the chain shown (N, C = ends). [ ]: non-standard residue; d: D form. hPhe(3-Cl-4-CF3) = N[C@@H](CCc1ccc(C(F)(F)F)c(Cl)c1)C(=O)O; NPrPhe(4-CF3) = CCCN[C@@H](Cc1ccc(C(F)(F)F)cc1)C(=O)O; NMeGly(cPent) = CN[C@H](C(=O)O)C1CCCC1; Pro(4,4-F2) = O=C(O)[C@@H]1CC(F)(F)CN1; NMeL = CN[C@@H](CC(C)C)C(=O)O; Ac4c = NC1(C(=O)O)CCC1; Sar = CNCC(=O)O
quantity: IC50
Enter the number, and then the unit.

compound: CCC[C@H]1C(=O)N[C@@H]([C@@H](C)CC)C(=O)N(C)CC(=O)N(C)[C@H]2C/C=C\CCN(C2=O)[C@@H](Cc2ccc(C(F)(F)F)cc2)C(=O)N(C)CC(=O)N[C@@H](CCc2cc(Cl)c3sccc3c2)C(=O)N2C[C@H](OCC)C[C@H]2C(=O)NC2(CC(C)(C)C2)C(=O)N(C)[C@@H](C2CCCC2)C(=O)N(C)[C@H](C(=O)N(C)C)CC(=O)N1C
recorded_result: 0.0053 µM

# return recorded IC50 for input CCCC[C@H]1C(=O)N[C@@H]([C@@H](C)CC)C(=O)N(C)CC(=O)N(C)[C@H]2C/C=C\CCN(C2=O)[C@@H](Cc2ccc(C(F)(F)F)cc2)C(=O)N(C)CC(=O)N[C@@H](CCc2cc(F)c(C(F)(F)F)c(F)c2)C(=O)N2C[C@H](OCC)C[C@H]2C(=O)NC2(CC(F)(F)C2)C(=O)N(C)[C@@H](C2CCCC2)C(=O)N(C)[C@H](C(=O)N(C)C)CC(=O)N1C
0.0036 µM

# return recorded IC50 for input CCCN1C(=O)CN(C)C(=O)CN(C)C(=O)[C@H]([C@@H](C)CC)NC(=O)[C@H](CC(C)C)N(C)C(=O)C[C@@H](C(=O)N(C)C)NC(=O)[C@H](C2CCCC2)N(C)C(=O)C2(CCC2)NC(=O)[C@@H]2CC(F)(F)CN2C(=O)[C@H](CCc2ccc(C(F)(F)F)c(Cl)c2)NC(=O)CN(C)C(=O)[C@@H]1Cc1ccc(C(F)(F)F)cc1 [PP0358] ([NMeL]I[Sar][Sar][NPrPhe(4-CF3)][Sar][hPhe(3-Cl-4-CF3)][Pro(4,4-F2)][Ac4c][NMeGly(cPent)]D-NMe2; lactam N-11)
0.0348 µM

# return recorded IC50 for input CCC[C@H]1C(=O)N[C@@H]([C@@H](C)CC)C(=O)N(C)CC(=O)N(C)[C@H]2C/C=C\CCN(C2=O)[C@@H](Cc2ccc(C(F)(F)F)cc2)C(=O)N(C)CC(=O)N[C@@H](CCc2ccc3sc(C)c(C)c3c2)C(=O)N2C[C@H](OCC)C[C@H]2C(=O)NC2(CC(C)(C)C2)C(=O)N(C)[C@@H](C(CC)CC)C(=O)N(C)[C@H](C(=O)N(C)C)CC(=O)N1C
0.0145 µM

# return recorded IC50 for input CCCN(C)C(=O)[C@@H]1CC(=O)N(C)[C@@H](CC(F)F)C(=O)N[C@@H]([C@@H](C)CC)C(=O)N(C)CC(=O)N(C)[C@H]2C/C=C\CCN(C2=O)[C@@H](Cc2ccc(C(F)(F)F)cc2)C(=O)N(C)CC(=O)N[C@@H](CCc2ccc(C(F)(F)F)c(OC)c2)C(=O)N2C[C@@H](C)C[C@H]2C(=O)NC2(CC(C)(C)C2)C(=O)N(C)[C@@H](C2CCCC2)C(=O)N1C
0.0111 µM
